Tested on: H3K9me2 in HCT116 cells
Experiment: HCT116 H3K9me2 in-cell western assay
Format: cell-based
Conditions: Homo sapiens, HCT-116, 72 h, HCT116 cells, 72 hours incubation; read-out: H3K9me2 ICW IC50
pIC50: −log10 of the molar value.
Attribute: pIC50

Recorded pIC50, per entry:
[2H]C([2H])([2H])Nc1nc(Nc2cc3c(c(C4=CCN(C)CCC4)c2F)OCC3)nc(C)c1F [Compound 228] : 6.30 to 7.00
CNc1cc(C)nc(Nc2cc(OCCCN3CCCC3)c3c(c2)OCO3)n1 [Compound 118] : 6.30 to 7.00

Consider Cc1cc(NC2CCCCC2)nc(Nc2cc3c(c(OCCCN4CCCC4)c2)OCC3)n1 [Compound 117] . Its measured pIC50 is < 5.70

Consider CNc1cc(C)nc(Nc2cc3c(c(C4=CCNC[C@@H](O)C4)c2F)OC[C@H]3C)n1 (stereo in doubt) [Compound 420] . Its measured pIC50 is > 7.00

Consider [2H]C([2H])([2H])Nc1nc(Nc2cc3c(c(C4=CCNCCC4)c2)OCO3)nc(C)c1F [Compound 275] . Its measured pIC50 is 6.30 to 7.00

Consider CNc1cc(C)nc(Nc2cc3c(c(C4=CCNC(C)CC4)c2F)OCO3)n1 (single isomer, unassigned) [Compound 369] . Its measured pIC50 is > 7.00

Consider CNc1cc(C)nc(Nc2cc3c(c(C4=CCNCCC4)c2F)OCCC3C)n1 (single isomer, unassigned) [Compound 414] . Its measured pIC50 is > 7.00
